Target: T1, Extracellular domain (ECD) of the canine IL-4 receptor alpha-V5 epitope-AviTag-His Tag (canine)
T1 construct: monomeric form isolated by size exclusion; also called canine IL-4RA-V5-Avi-His; canine IL-4RA
T1 chain: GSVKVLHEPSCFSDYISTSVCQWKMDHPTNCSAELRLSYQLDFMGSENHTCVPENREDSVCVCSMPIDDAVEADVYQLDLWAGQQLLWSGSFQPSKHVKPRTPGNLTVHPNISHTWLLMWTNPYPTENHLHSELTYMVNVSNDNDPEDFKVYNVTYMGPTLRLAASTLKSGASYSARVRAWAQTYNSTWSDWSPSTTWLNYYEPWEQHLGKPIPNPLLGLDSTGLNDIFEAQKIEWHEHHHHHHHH
Test: SPR, Fab-SASA captured on BSA;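 also: biacore T200 SPR, Fab-SASA variants from E. coli conditioned medium captured on BSA-coated CM5 chip, canine IL-4RA injected 120 s then 420 s dissociation, 1:1 model fit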
The binders listed here are annotated with their Ratio WT-kd/clone-kd.

TB640_005 Fab-SASA VL-G96P (Fab, V domains shown, not shown: SASA tag then His-tag) VH: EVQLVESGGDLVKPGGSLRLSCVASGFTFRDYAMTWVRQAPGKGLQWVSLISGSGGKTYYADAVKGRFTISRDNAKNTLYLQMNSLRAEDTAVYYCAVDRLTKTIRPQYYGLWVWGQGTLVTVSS VL: DIVMTQTPLSLSVSPGETASISCRSSQSLLYSIGYNYLDWYLQKPGQSPQGLIYLGSKRASGVPDRFSGSGSGTDFTLRISRVEANDTGVYYCMQPLQSPLTFGQGTKLEIKR    2.66

The record that follows has no Ratio WT-kd/clone-kd shown yet.
Complete the entry with Ratio WT-kd/clone-kd for TB640_005 Fab-SASA VH-K103I (Fab, V domains shown, not shown: SASA tag then His-tag) VH: EVQLVESGGDLVKPGGSLRLSCVASGFTFRDYAMTWVRQAPGKGLQWVSLISGSGGKTYYADAVKGRFTISRDNAKNTLYLQMNSLRAEDTAVYYCAVDRLTITIRPQYYGLWVWGQGTLVTVSS VL: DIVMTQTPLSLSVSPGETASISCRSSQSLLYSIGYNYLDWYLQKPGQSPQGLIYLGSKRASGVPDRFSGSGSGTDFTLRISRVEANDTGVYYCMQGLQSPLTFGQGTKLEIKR
0.99
